Parameter: pEC50. Scope: all listed entries.
target: T1, human Claudin18.2 (human); test: FACS, Claudin18.2-HEK293 cells
T1 construct: also called CLDN18.2
pEC50: −log10 of the molar value.

[
  {
    "binder": "chimeric 201F4H6 (antibody, human IgG1, kappa, V domains shown, chimeric, human IgG1/kappa constant regions) VH: QVQLKESGPGLVAPSQSLSITCTVSGFSLTSYGVSWVRQPPGKGLECLGVIWAGGNTNYNSALMSRLSISKDKSKSQVFLKMNSLQTDDTAMYYCARVYYGNAMDYWGQGTSVTVSS VL: DIVMTQSPSSLTVTAGEKVTMSCKSSQSLLNSGNQKSYLTWYQQRPGQPPKLLIYWASTRESGVPDRFTGSGSGTDFTLTISSVQAEDLAVYFCQNVYFFPFTFGSGTKLETKR",
    "pEC50": 8.87
  },
  {
    "binder": "chimeric 232C5E3 (antibody, human IgG1, kappa, V domains shown, chimeric, human IgG1/kappa constant regions; also called 232C5E3-Chimeric) VH: QAYLQQSGAELVRSGASVKMSCKASGYTFTSHNIHWIKQTPGKGLEWIGYIYPGNGGTNYNQKFKAKATLTADTSSSTAYMQISSLTSEDSAVYFCARDYYGNSFAYWGQGTLVTVSA VL: DIMMTQSPSSLTETAGEKVSMSCKSSQSLLNSGNQKNYLTWYQQKPGQPPKLLIYWASTRESGVPDRFSGSGSGTDFTLTISSVQAEDLAVYYCQNGYRFPFTFGAGTKLELKR",
    "pEC50": 8.98
  },
  {
    "binder": "chimeric 253E4F7 (antibody, human IgG1, kappa, V domains shown, chimeric, human IgG1/kappa constant regions) VH: EIQLQQSGPELMKPGASVKMSCKASGYSFTSYYIHWVKQSHGKSLEWIGYIDPFNGGTRYNQKFEGKATLTVDKSSTTAYMHLSSLTSEDSTVYYCASLRFLAYWGQGTLVTVSA VL: DIVMTQSPSSLTVTAGEKVTMTCKSSQSLLNSGNQKNYLTWYQQKPGQPPKVLISRASTRQSGVPDRFTGSGSGTDFTLTISSVQAEDLAVYYCQNDYSYPLTFGAGTKLELKR",
    "pEC50": 9.25
  }
]
